Reported EC50 values are given for each entry in this list.
- System: HIV
- Assay Summary: Anti-HIV activity (HeLa-CD4 cells, β-gal reporter assay)
- Format: cell-based
- Protocol Conditions: Human immunodeficiency virus 1, 72 h, concentration to inhibit HIV infection by 50%, 3 days, luminescence
Give just the numeric value; nM need not be written.

| Structure Notation | EC50 [nM] |
| --- | --- |
| C[C@@H]1CCO[C@H]2Cn3cc(C(=O)NCc4cccs4)c(=O)c(O)c3C(=O)N12 | 11 |
| C[C@@H]1CCO[C@H]2Cn3cc(C(=O)NCc4ccsc4)c(=O)c(O)c3C(=O)N12 | 6.4 |
| C[C@@H]1CCO[C@H]2Cn3cc(C(=O)NC[C@@H]4CCCO4)c(=O)c(O)c3C(=O)N12 | 25 |
| C[C@@H]1CCO[C@H]2Cn3cc(C(=O)NCc4nc5ccccc5s4)c(=O)c(O)c3C(=O)N12 | 38 |
| C[C@@H]1CCO[C@H]2Cn3cc(C(=O)NCC4CCCCCC4)c(=O)c(O)c3C(=O)N12 | 32 |

Ask: Please state recorded EC50 (tested on HIV) of C[C@@H]1CCO[C@H]2Cn3cc(C(=O)NCc4nccs4)c(=O)c(O)c3C(=O)N12
Result: 32

Ask: And then C[C@@H]1CCO[C@H]2Cn3cc(C(=O)NNC(=O)c4ccc(F)cc4)c(=O)c(O)c3C(=O)N12 , what is it?
Result: 15

Ask: C[C@@H]1CCO[C@H]2Cn3cc(C(=O)NCc4ccoc4)c(=O)c(O)c3C(=O)N12 ?
Result: 42

Ask: Next up: C[C@@H]1CCO[C@H]2Cn3cc(C(=O)NC(c4ccccc4)c4ccccc4)c(=O)c(O)c3C(=O)N12
Result: 16

====

- Target Or System: HIV integrase (Human immunodeficiency virus type 1 group M subtype B)
Test Readout: IC50 (nM)
Form entry: value (nM) — number only.

| Compound | Test Readout | Value Reported |
| --- | --- | --- |
| C[C@@H]1CCO[C@H]2Cn3cc(C(=O)NCc4cccs4)c(=O)c(O)c3C(=O)N12 [Compound A-39] | IC50 | 27 |
| C[C@@H]1CCO[C@H]2Cn3cc(C(=O)NCC4CCCCCC4)c(=O)c(O)c3C(=O)N12 [Compound A-50] | IC50 | 13.5 |
| C[C@@H]1CCO[C@H]2Cn3cc(C(=O)NCc4ccsc4)c(=O)c(O)c3C(=O)N12 [Compound A-56] | IC50 | 29.7 |

Ask: Param readout= IC50; system= HIV integrase (Human immunodeficiency virus type 1 group M subtype B); entry= C[C@@H]1CCO[C@H]2Cn3cc(C(=O)NCc4cc5ccccc5s4)c(=O)c(O)c3C(=O)N12 [Compound A-20] ; returns value.
Result: 28.4

====

Catalogue of molecules with associated pEC50
- Tested on: HIV
- Assay Summary: Anti-HIV activity (HeLa-CD4 cells, β-gal reporter assay)
- Format: cell-based
- Protocol Conditions: Human immunodeficiency virus 1, 72 h, concentration to inhibit HIV infection by 50%, 3 days, luminescence
Keep it numeric: pEC50 is minus log10 of the concentration in mol/L.

| Molecule | Target Or System | Value Reported |
| --- | --- | --- |
| C[C@@H]1CCO[C@H]2Cn3cc(C(=O)NCCC4CCCCC4)c(=O)c(O)c3C(=O)N12 [Compound A-42] | HIV | 7.34 |
| C[C@@H]1CCO[C@H]2Cn3cc(C(=O)NCc4cc5ccccc5s4)c(=O)c(O)c3C(=O)N12 [Compound A-20] | HIV | 7.96 |

Ask: pEC50 for C[C@@H]1CCO[C@H]2Cn3cc(C(=O)NCCc4cccs4)c(=O)c(O)c3C(=O)N12 [Compound A-65] ?
Result: 7.66
